target: Nuclear receptor subfamily 5 group A member 2 (Homo sapiens) (UniProt O00482); test: suppression of LRH-1-driven Cyp19-luciferase signal, LRH-1 inverse agonist project, cell-based, luminescence, 3X%INH (AID 485348); details: HEK293T LRH-1 Cyp19-luciferase reporter, 20 h, at 5 µM, hits give high values
Sequence (O00482 whole entry, looked up): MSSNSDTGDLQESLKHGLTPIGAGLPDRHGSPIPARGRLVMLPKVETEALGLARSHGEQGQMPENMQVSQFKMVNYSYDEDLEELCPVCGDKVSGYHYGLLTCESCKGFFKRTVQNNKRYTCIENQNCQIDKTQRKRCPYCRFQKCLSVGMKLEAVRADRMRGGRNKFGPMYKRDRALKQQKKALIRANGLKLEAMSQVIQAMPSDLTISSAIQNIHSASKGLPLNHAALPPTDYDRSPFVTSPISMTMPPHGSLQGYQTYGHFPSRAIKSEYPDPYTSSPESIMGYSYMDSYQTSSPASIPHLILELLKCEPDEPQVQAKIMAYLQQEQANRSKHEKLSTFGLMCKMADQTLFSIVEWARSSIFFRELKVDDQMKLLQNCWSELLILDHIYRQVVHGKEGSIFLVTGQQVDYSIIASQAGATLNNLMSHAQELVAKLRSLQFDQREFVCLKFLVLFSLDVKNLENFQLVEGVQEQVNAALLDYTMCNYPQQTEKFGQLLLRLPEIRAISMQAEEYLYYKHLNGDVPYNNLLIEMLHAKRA
measurement-name: inhibition (%)

Consider the worked cases shown below.
- smiles-input: "O=c1cc(N2CCN(c3cccc(F)c3)CC2)[nH]c(=O)n1C1CCCCC1"
  units-of-measure: "%"
  inhibition: 36.7
- smiles-input: "O=c1cc(N2CCN(c3cccc(C(F)(F)F)c3)CC2)[nH]c(=O)n1Cc1ccccc1"
  units-of-measure: "%"
  inhibition: 3
- smiles-input: "CCn1c(=O)cc(N2CCN(Cc3ccccc3)CC2)[nH]c1=O"
  units-of-measure: "%"
  inhibition: 9.7
- smiles-input: "O=c1cc(N2CCN(c3cccc(C(F)(F)F)c3)CC2)[nH]c(=O)n1-c1ccccc1"
  units-of-measure: "%"
  inhibition: 17.7
- smiles-input: "O=c1cc(N2CCN(c3cccc(Cl)c3)CC2)[nH]c(=O)n1C1CCCCC1"
  units-of-measure: "%"
  inhibition: 52.3
- smiles-input: "O=c1cc(N2CCC(Cc3ccccc3)CC2)[nH]c(=O)n1C1CCCCC1"
  units-of-measure: "%"
  inhibition: 2.3

A = O=c1cc(N2CCN(c3ccc(F)cc3)CC2)[nH]c(=O)n1C1CCCCC1
B = O=c1cc(N2CCN(Cc3ccc4c(c3)OCO4)CC2)[nH]c(=O)n1C1CCCCC1
C = O=c1cc(N2CCN(C3CCCCC3)CC2)[nH]c(=O)n1C1CCCCC1
Arrange these compounds by their inhibition, starting with the largest number. Give your ranking as a list of the labels in the requested order. C, B, A

I = N#CCn1c(N2CCN(c3cccc(C(F)(F)F)c3)CC2)cc(=O)n(C2CCCCC2)c1=O
II = COC(=O)C1CCN(c2cc(=O)n(C3CCCCC3)c(=O)[nH]2)CC1
III = C=CCn1c(N2CCN(c3cccc(C(F)(F)F)c3)CC2)cc(=O)n(C2CCCCC2)c1=O
Arrange these compounds by their inhibition, starting with the largest number. Give your ranking as a list of the labels in the requested order. III, II, I
(III: 29.7%, II: 18%, I: 2%)

Every entry's value here was drawn from PubChem BioAssay AID485348.
